Documented AC50 across a set of molecules
- Tested on: INS-1E rat beta cells, no cytokines, CellTiter-Glo ATP, 48 h
- experiment: cytokine-free beta-cell viability effect – INS-1E rat cells, ATP luminescence, cherry pick, counter-screen for beta-cell apoptosis protection project, dose response (AID 463229)

These recorded examples may help you get a feel for the data.
CCOC(=O)c1ccc(NC(=O)c2nc(S(=O)(=O)Cc3ccccc3)ncc2Cl)cc1    9.2 µM
COc1cc(OC)nc(-n2ncc(Br)c(Br)c2=O)n1    6.66 µM

Prompt: What does the data say about its AC50? Entry: O=C(/C=C/c1ccc(F)cc1)NC(=S)NNC(=O)c1cnccn1
Completion: 5.29 µM

Prompt: Ok, now O=C(N/N=C/c1c(O)ccc2ccccc12)c1[nH]ncc1Br
Completion: 2.16 µM

Prompt: Ok, now C/C(=N/NC(=O)c1cccs1)c1c(C)[nH]n(-c2nc3ccccc3s2)c1=O
Completion: 16.2 µM

Prompt: Ok, now COc1cccc(/C=N/Nc2cc(N3CCOCC3)ncn2)c1O
Completion: 14.2 µM

Prompt: Ok, now C=CCn1c(SCN2C(=O)c3ccccc3C2=O)nc2ccc(Cl)cc2c1=O
Completion: 7.16 µM

----------
Documented AC50 across a set of molecules
- Test system: INS-1E rat beta cells, no cytokines, CellTiter-Glo ATP, 48 h
- experiment: cytokine-free beta-cell viability effect – INS-1E rat cells, ATP luminescence, cherry pick, counter-screen for beta-cell apoptosis protection project, dose response (AID 463229)

CCOC(=O)N1CCN(S(=O)(=O)c2ccc(C(=O)NNc3nc4ccc(Cl)cc4s3)cc2)CC1    5.43 µM
CCc1nnc(NC(=O)c2cccc(C(=O)Nc3nnc(CC)s3)n2)s1    2.98 µM
COc1ccc(CCNc2cc(N3CCN(C(=O)c4ccccc4OC)CC3)ccc2[N+](=O)[O-])cc1OC    8.74 µM
Cc1nc2ccccc2cc1OCc1ccc(F)cc1    6.6 µM
O=C1C=C(c2cccs2)C[C@H](c2ccccc2)[C@H]1n1nnc([N+](=O)[O-])n1    12.8 µM

Prompt: What does the data say about its AC50? Entry: Cc1ccn2c(Nc3ccccc3)c(-c3ccccn3)nc2c1
Completion: 7.4 µM

Prompt: Ok, now C/C(=N\NC(=O)c1cc(C)nc2ccccc12)c1ccccn1
Completion: 2.83 µM

Prompt: Ok, now COc1ccccc1NC(=O)c1nc(S(=O)(=O)Cc2ccccc2)ncc1Cl
Completion: 8.64 µM

Prompt: Ok, now CCN(CC)c1ccc(CNc2nc3ccccc3n2CCN2CCCCC2)cc1
Completion: 7.26 µM

Prompt: Ok, now CSc1ccccc1OCc1cc(C(=O)N2CCc3c(Cl)cccc3C2)no1
Completion: 6.99 µM

Prompt: Ok, now Cc1cc(C)c(CN2CCN(C(=O)Cn3cnc4c(OCc5ccccc5)ncnc43)CC2)c(C)c1
Completion: 6.91 µM

Prompt: Ok, now O=C(Nc1nc(-c2ccccn2)cs1)c1ccc(Cl)s1
Completion: 4.38 µM

Prompt: Ok, now Cn1cc(C(=O)N/N=C/c2c(O)ccc3ccccc23)ccc1=O
Completion: 2.5 µM

Prompt: Ok, now Cc1sc2ncnc(NC3CCN(Cc4ccccc4)CC3)c2c1C
Completion: 5.11 µM

Prompt: Ok, now NS(=O)(=O)c1ccc(N/N=C/c2cn(-c3ccccc3)nc2-c2cccs2)c([N+](=O)[O-])c1
Completion: 5.61 µM

Prompt: Ok, now CC1CCC(C(C)C)C(OC(=O)C[n+]2cc(-c3ccc(Cl)cc3)n3c2CCCCC3)C1 (stereo unspecified)
Completion: 7.32 µM

Prompt: Ok, now Cc1ccc2c(c1)nnn2C1CCN(S(=O)(=O)c2ccc(C(=O)N3C(C)CCCC3C)cc2)CC1 (stereo unspecified)
Completion: 7.75 µM
